Recorded log10 MIC, one value per entry.
System: Staphylococcus aureus ATCC 6538 P FDA 209P
The common logarithm of MIC in µM is what is listed.

Reference set, count: 3
# molecule, log10 MIC
records = [
    ("CCCCCCCCCCCCCC[P+](N(CC)CC)(N(CC)CC)N(CC)CC", -0.60),
    ("CCCCCCCC[P+](c1ccccc1)(c1ccccc1)c1ccccc1 [compound 8, Octyltriphenylphosphonium iodide, reference compound]", -0.05),
    ("CCn1cc(C(=O)O)c(=O)c2cc(F)c(N3CCNCC3)cc21 [Norfloxacin, reference compound]", 0.88),
]

Form: item `CCCCCCCC[P+](c1ccccc1)(c1ccccc1)N(CC)CC` ; test system Staphylococcus aureus ATCC 6538 P FDA 209P; log10 MIC: 0.89

// returns log10 MIC for `CCCCCCCCCC[P+](c1ccccc1)(N(CC)CC)N(CC)CC` with Staphylococcus aureus ATCC 6538 P FDA 209P; value = -0.05

Entry `CCN(CC)[P+](CCCCCC[P+](N(CC)CC)(N(CC)CC)N(CC)CC)(N(CC)CC)N(CC)CC` , tested on Staphylococcus aureus ATCC 6538 P FDA 209P, has a reported log10 MIC of 1.54

For the molecule `CCCCCCCCC[P+](N(CC)CC)(N(CC)CC)N(CC)CC` , the measured log10 MIC on Staphylococcus aureus ATCC 6538 P FDA 209P was 0.59

// log10 MIC (Staphylococcus aureus ATCC 6538 P FDA 209P) for CCCCCCCC[N+](CC)(CC)CC [compound 7, Triethyloctylammonium iodide, reference compound] = 2.40

Source: paper PMC10649961
